B1: GFOD1 (parent)
chain: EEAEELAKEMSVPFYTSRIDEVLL

Variants of: B1
assay-details: protein stability index of a GFP-peptide fusion (GPS, HEK-293T) (PSI 1-6); higher = more stable;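 note: lentivirally expressed fusions sorted by FACS into six bins by GFP to DsRed ratio, PSI derived from sequencing read proportions per bin multiplied by bin number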
test-parameters: c terminus: a fixed tail appended
The label depends only on protein stability index: criterion met if it is at least 4, criterion not met if it is smaller.

See these solved cases before continuing.
variant-id: I19Y
assigned-category: criterion met
//
variant-id: Y15S
assigned-category: criterion met
//
variant-id: K8C
assigned-category: criterion not met
//
variant-id: L6K
assigned-category: criterion met
//
variant-id: F14E
assigned-category: criterion met

Input: Check the entry `L6P` : does protein stability index equal or exceed 4?
Output: criterion met

Input: Check the entry `S17Y` : does protein stability index equal or exceed 4?
Output: criterion not met

Input: Check the entry `S11A` : does protein stability index equal or exceed 4?
Output: criterion not met
